System: 843782-103-R-J1-PDC complex spheroid viability;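 note: viability read after seven days of compound exposure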
Assay: Anticancer human tumor 843782-103-R-J1-PDC patient-derived lung adenocarcinoma cell line growth inhibition [RAS]
Conditions: second compound 0.1 µM; first compound 0.3 µM; stronger effect = lower value
For each of the molecules below, state its viability, T/C.
Kindly provide the numeric value in % only, without the unit symbol.

Prompt: Recorded viability, T/C for CC1(C)CCC(Nc2ncc(C(F)(F)F)c(-c3c[nH]c4c(P(C)(C)=O)c(C#N)ccc34)n2)CN1 (stereo not drawn) + C#Cc1c(F)ccc2cc(O)cc(-c3ncc4c(N5CC6CCC(C5)N6)nc(OCC56CCCN5CC(F)C6)nc4c3F)c12 , please?
Completion: 23.1

Prompt: Recorded viability, T/C for CCc1c2c(nc3ccc(O)cc13)-c1cc3c(c(=O)n1C2)COC(=O)[C@]3(O)CC + C=CC(=O)N1CCN(c2nc(OCC3CCCN3C)nc3c(F)c(-c4nc(N)cc(C)c4C(F)(F)F)c(Cl)cc23)C(C)C1 , please?
Completion: 0.64

Prompt: Recorded viability, T/C for CCc1c2c(nc3ccc(O)cc13)-c1cc3c(c(=O)n1C2)COC(=O)[C@]3(O)CC + C#Cc1c(F)ccc2cc(O)cc(-c3ncc4c(N5CC6CCC(C5)N6)nc(OCC56CCCN5CC(F)C6)nc4c3F)c12 , please?
Completion: 0.68
